Catalogue of Potency readings, one per entry.
# test_system: DNA dC->dU-editing enzyme APOBEC-3F (Homo sapiens)
# protocol_text: qHTS for inhibitors of Vif-A3F interactions: Cherry picks; further: potency means the concentration at half of the fitted maximal effect; nearly all actives have a fitted effect of over 70% in size
# condition_description: HeLa A3F-eYFP + Vif (tagged APOBEC3F with the HIV-1 protein that degrades it), eYFP fluorescence, 24 h
About 590 (28%) of roughly 2,100 compounds were called active. About 42% were inconclusive and are not listed. The list shows a part of the results.

| compound | measured_value |
| --- | --- |
| CCS(=O)(=O)N1N=C(c2cccc(NS(C)(=O)=O)c2)CC1c1ccccc1 (stereo unspecified) | 23.1 µM (active) |
| Cc1ccc(CNC(=O)c2ccccc2NC(=O)c2nsc3ccccc23)cc1 | 20.6 µM (active) |
| CN1C(=O)C(=Cc2ccc(N3CCCCC3)o2)C(=O)N(C)C1=S | 5.17 µM (active) |

Req: Entry `O=C(Cc1ccccc1)c1ccccn1` has what Potency?
Resp: 17.7 µM (active)

Req: What does the record list as Potency for `O=Cc1c(C(=O)O)n(Cc2ccc(Cl)cc2)c2ccccc12` ?
Resp: 20.6 µM (active)

Req: Report Potency for `CN1C(=O)C(=Cc2ccc(N3CCOCC3)o2)C(=O)N(C)C1=O` please.
Resp: 18.4 µM (active)
